Where do these numbers come from? They come from the METLIN SMRT retention time set (Domingo-Almenara et al. 2019).

This listing pairs molecules with measured RP-LC retention time.
Test: gradient 5% acetonitrile 3 min, to 50% in 2 min, to 85% in 15 min, held 3 min, 100 µL/min
Conditions: column: Zorbax Extend-C18 2.1 x 50 mm; eluents: water / acetonitrile, 0.1% formic acid

Here are 8 molecules together with their reported answers.
>  <MOLECULE>
COc1ccc(S(=O)(=O)N2CCC(n3c(-c4ccoc4)nc4cccnc43)C2)cc1 (centres undefined)

>  <EXPERIMENTAL_RESULT>
831 s

$$$$
>  <MOLECULE>
O=C(NCc1ccccc1F)C1=C2CCCN2c2ccccc2S1(=O)=O

>  <EXPERIMENTAL_RESULT>
818 s

$$$$
>  <MOLECULE>
CCC(=O)N1CCc2cc(C)c(S(=O)(=O)NCc3ccco3)cc21

>  <EXPERIMENTAL_RESULT>
664 s

$$$$
>  <MOLECULE>
Cc1cc2nn(CC(=O)NCc3ccc4c(c3)OCO4)c(=O)n2c(-c2ccccc2)n1

>  <EXPERIMENTAL_RESULT>
600 s

$$$$
>  <MOLECULE>
Cn1cc2c3c(cccc31)CN(C(=O)Nc1ccccc1C(F)(F)F)CC2

>  <EXPERIMENTAL_RESULT>
978 s

$$$$
>  <MOLECULE>
O=C(Oc1coc(CSc2ncccn2)cc1=O)c1cccs1

>  <EXPERIMENTAL_RESULT>
695 s

$$$$
>  <MOLECULE>
Cc1csc(-c2ccc(N3CCN(C(=O)Cc4cccc(Cl)c4)CC3)nc2)n1

>  <EXPERIMENTAL_RESULT>
896 s

$$$$
>  <MOLECULE>
Cc1oc2ncnc(N3CCCC(C(=O)N4CCC(C(N)=O)CC4)C3)c2c1C (centres undefined)

>  <EXPERIMENTAL_RESULT>
620 s

$$$$

Recorded RP-LC retention time of CC1=C(c2ccc(Cl)cc2)S(=O)(=O)N=C1N1CCCN(C(=O)C(C)(C)C)CC1 , please.
900 s
